- experiment: LDH cytotoxic activity assay, HT29
- Type: cell-based
- stated conditions: human, HT29 cells, HT29, 100 μg/mL
readout: cytotoxicity at 24 h, 100 μg/mL (%)
Write the answer as a number in %, unit excluded.

Cc1ccccc1-c1cc(-c2ccncc2)nc(N[C@@H]2O[C@H](CO)[C@@H](O)[C@H](O)[C@H]2O)n1 | 98.7

Please report the recorded cytotoxicity at 24 h, 100 μg/mL for `Cc1cccc(-c2cc(-c3ccncc3)nc(N[C@@H]3O[C@H](CO)[C@@H](O)[C@H](O)[C@H]3O)n2)c1` .
85.6

Given the entry `Cc1ccc(-c2cc(-c3ccncc3)nc(N[C@@H]3O[C@H](CO)[C@@H](O)[C@H](O)[C@H]3O)n2)cc1` , report its measured cytotoxicity at 24 h, 100 μg/mL.
81.8

What cytotoxicity at 24 h, 100 μg/mL value was documented for this compound, `Cc1ccc(-c2cc(-c3ccccn3)nc(N[C@@H]3O[C@H](CO)[C@@H](O)[C@H](O)[C@H]3O)n2)cc1` ?
91.8

Item `CC(=O)OC[C@H]1O[C@@H](Nc2nc(-c3cccnc3)cc(-c3cccc(C)c3)n2)[C@H](OC(C)=O)[C@@H](OC(C)=O)[C@@H]1OC(C)=O` has what recorded cytotoxicity at 24 h, 100 μg/mL?
72.2
